# reported percent inhibition of viability; entries follow
system: IMC-1 (IL-2 20 ng/mL); experiment: percent inhibition of viability; higher = more inhibition; details: 72 h; 10 nM;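 also: normalised to DMSO-only wells as negative and benzethonium chloride as positive control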
Respond with the bare value in %.

>>> endpointvalue("S=C(NCc1ccc2c(c1)OCO2)N1CCN(c2ncnc3c2oc2ccccc23)CC1 [Amuvatinib] (max concentration tested 10000 nM)")
-0.29

// below: percent inhibition of viability requested for another molecule
stdin: Recorded percent inhibition of viability of CC(C)C[C@H](NC(=O)[C@@H](COC(C)(C)C)NC(=O)[C@H](Cc1ccc(O)cc1)NC(=O)[C@H](CO)NC(=O)[C@H](Cc1c[nH]c2ccccc12)NC(=O)[C@H](Cc1cnc[nH]1)NC(=O)[C@@H]1CCC(=O)N1)C(=O)N[C@@H](CCCNC(=N)N)C(=O)N1CCC[C@H]1C(=O)NNC(N)=O [Goserelin] (max concentration tested 10000 nM) , please.
stdout: -3.76
